Molecular target: IDH1 (R132H) (Homo sapiens, UniProt O75874, R132H)
Sequence (O75874 whole entry R132H): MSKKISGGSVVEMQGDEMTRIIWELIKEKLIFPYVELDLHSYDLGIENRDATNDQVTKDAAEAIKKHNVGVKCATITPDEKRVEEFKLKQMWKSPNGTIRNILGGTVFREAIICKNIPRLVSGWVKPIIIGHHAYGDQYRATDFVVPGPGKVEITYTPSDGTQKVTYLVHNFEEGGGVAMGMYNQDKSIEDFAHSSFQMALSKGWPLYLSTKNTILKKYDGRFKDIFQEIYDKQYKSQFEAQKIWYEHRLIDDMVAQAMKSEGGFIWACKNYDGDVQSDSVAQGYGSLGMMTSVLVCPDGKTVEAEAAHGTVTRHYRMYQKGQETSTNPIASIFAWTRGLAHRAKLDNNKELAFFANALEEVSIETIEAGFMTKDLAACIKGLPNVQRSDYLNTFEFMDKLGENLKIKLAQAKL
Assay: IDH enzyme assay, NADPH depletion by diaphorase/resazurin coupled detection
Format: biochemical
Details: pre-incubated with enzyme for 1 h at room temperature; 1500 μM a-Ketoglutarate+15 μM NADPH; 10-dose, 3-fold dilution from 10 μM; read-out: Compound IC50 (nM) IDH1 (R132H)
Classify: yes (1) when IC50 is strictly less than 10 nM; no (0) when IC50 is not.

q: State whether 10 nM exceeds IC50 recorded for C=CC(=O)Nc1cc(Cn2nc(C(=O)Nc3cccc([C@H](C)O)c3)c3c2C(C)CN(C(=O)c2ccc[nH]2)C3)ccc1F (stereo partly shown) .
a: no (0)

q: State whether 10 nM exceeds IC50 recorded for C=CC(=O)Nc1cc(NC(=O)c2nn(Cc3ccc(F)cc3)c3c2CN(C(=O)c2ccc[nH]2)CC3C)ccc1Cl (stereo not shown) .
a: no (0)

q: State whether 10 nM exceeds IC50 recorded for C=CC(=O)Nc1ccc(Cn2nc(C(=O)Nc3cccc(C)c3)c3c2C(C)CN(C(=O)c2ccc[nH]2)C3)cc1C (stereo not shown) .
a: no (0)

q: State whether 10 nM exceeds IC50 recorded for C=CC(=O)NCc1cc(Cn2nc(C(=O)Nc3cccc(C)c3)c3c2C(C)CN(C(=O)c2ccc[nH]2)C3)ccc1F (stereo not shown) .
a: no (0)

q: State whether 10 nM exceeds IC50 recorded for C=CC(=O)NCc1cc(F)ccc1Cn1nc(C(=O)Nc2cccc([C@H](C)O)c2)c2c1C(C)CN(C(=O)c1ccc[nH]1)C2 (stereo partly shown) .
a: no (0)

q: State whether 10 nM exceeds IC50 recorded for C=CC(=O)Nc1cc(NC(=O)c2nn(Cc3ccc(F)cc3)c3c2CN(C(=O)c2ccc[nH]2)C[C@H]3C)ccc1OC .
a: yes (1)

* * *

Target: IDH1 (R132C) (Homo sapiens, UniProt O75874, R132C)
Sequence (O75874 whole entry R132C): as the sequence (O75874 whole entry R132H) above, with H132C counted along it
Assay: IDH enzyme assay, NADPH depletion by diaphorase/resazurin coupled detection
Type: biochemical
Settings: pre-incubated with enzyme for 1 h at room temperature; 500 μM a-Ketoglutarate+15 μM NADPH; 10-dose, 3-fold dilution from 10 μM; read-out: Compound IC50 (nM) IDH1 (R132C)
Protocol: Compounds were tested against 3 enzymes, as provided below. Compounds were tested in 10-dose IC50 mode with 3-fold serial dilution at a starting concentration of 10 μM. Control Compounds were tested in 10-dose IC50 mode with 3-fold serial dilution starting at 1 mM or 10 mM. Assay Format: The production or depletion of NADPH by IDH enzymes was measured by diaphorase/resazurin coupled detection. Fluorescence measurement: Ex/Em=535/590 by EnVision. […]
Would you mind telling me the reported log10 IC50 of each entry?
Recall that a logarithmic scale is used here: each number is log10 of IC50 in nM.

q: Read off the recorded log10 IC50 for C=CC(=O)Nc1cc(NC(=O)c2nn(Cc3ccc(F)cc3)c3c2CN(C(=O)c2ccc[nH]2)CC3C)ccc1Cl (centres unmarked) [ISO-2-29]
a: 1.79

q: Read off the recorded log10 IC50 for C=CC(=O)NCc1cc(Cn2nc(C(=O)Nc3cccc(C)c3)c3c2C(C)CN(C(=O)c2ccc[nH]2)C3)ccc1F (centres unmarked) [ISO-2-2]
a: 2.18

q: Read off the recorded log10 IC50 for C=CC(=O)Nc1cc(Cn2nc(C(=O)Nc3cccc(C)c3)c3c2C(C)CN(C(=O)c2ccc[nH]2)C3)ccc1F (centres unmarked) [ISO-2-1]
a: 1.54

q: Read off the recorded log10 IC50 for Cc1cccc(NC(=O)c2nn(Cc3ccc(F)c(NC(=O)/C=C/CCl)c3)c3c2CN(C(=O)c2ccc[nH]2)CC3C)c1 (centres unmarked) [ISO-2-36]
a: 0.90

q: Read off the recorded log10 IC50 for C=CC(=O)Nc1cc(NC(=O)c2nn(Cc3ccc(F)cc3)c3c2CN(C(=O)c2ccc[nH]2)C[C@H]3C)ccc1OC [ISO-2-30-R]
a: 1.15

q: Read off the recorded log10 IC50 for C=CC(=O)Nc1cccc(CNC(=O)c2nn(Cc3ccc(F)cc3)c3c2CN(C(=O)c2ccc[nH]2)CC3C)c1 (centres unmarked) [ISO-2-32]
a: 3.88

q: Read off the recorded log10 IC50 for C=CC(=O)Nc1cccc(Cn2nc(C(=O)Nc3cccc(C)c3)c3c2C(C)CN(C(=O)c2ccc[nH]2)C3)c1 (centres unmarked) [ISO-2-27]
a: 2.10

q: Read off the recorded log10 IC50 for C=CC(=O)N1CC(NC(=O)c2nn(Cc3ccc(F)cc3)c3c2CN(C(=O)c2ccc[nH]2)CC3C)C1 (centres unmarked) [ISO-2-10]
a: 3.98

q: Read off the recorded log10 IC50 for C=CC(=O)Nc1ccc(NC(=O)c2nn(Cc3ccc(F)cc3)c3c2CN(C(=O)c2ccc[nH]2)C[C@@H]3C)cc1 [ISO-2-25-S]
a: 3.89

q: Read off the recorded log10 IC50 for C=CC(=O)N1CCc2ccc(NC(=O)c3nn(Cc4ccc(F)cc4)c4c3CN(C(=O)c3ccc[nH]3)CC4C)cc21 (centres unmarked) [ISO-2-31]
a: 1.43

q: Read off the recorded log10 IC50 for C=CC(=O)Nc1ccc(Cn2nc(C(=O)Nc3cccc(C)c3)c3c2C(C)CN(C(=O)c2ccc[nH]2)C3)cc1C (centres unmarked) [ISO-2-28]
a: 3.74
